Experimental Target: GluN1/GluN2B NMDARs (Rattus norvegicus, UniProt P35439+Q00960)
Construct: expressed in transfected cells; host or cells: HEK293
Sequence (Q00960 27-1482, other chains not shown): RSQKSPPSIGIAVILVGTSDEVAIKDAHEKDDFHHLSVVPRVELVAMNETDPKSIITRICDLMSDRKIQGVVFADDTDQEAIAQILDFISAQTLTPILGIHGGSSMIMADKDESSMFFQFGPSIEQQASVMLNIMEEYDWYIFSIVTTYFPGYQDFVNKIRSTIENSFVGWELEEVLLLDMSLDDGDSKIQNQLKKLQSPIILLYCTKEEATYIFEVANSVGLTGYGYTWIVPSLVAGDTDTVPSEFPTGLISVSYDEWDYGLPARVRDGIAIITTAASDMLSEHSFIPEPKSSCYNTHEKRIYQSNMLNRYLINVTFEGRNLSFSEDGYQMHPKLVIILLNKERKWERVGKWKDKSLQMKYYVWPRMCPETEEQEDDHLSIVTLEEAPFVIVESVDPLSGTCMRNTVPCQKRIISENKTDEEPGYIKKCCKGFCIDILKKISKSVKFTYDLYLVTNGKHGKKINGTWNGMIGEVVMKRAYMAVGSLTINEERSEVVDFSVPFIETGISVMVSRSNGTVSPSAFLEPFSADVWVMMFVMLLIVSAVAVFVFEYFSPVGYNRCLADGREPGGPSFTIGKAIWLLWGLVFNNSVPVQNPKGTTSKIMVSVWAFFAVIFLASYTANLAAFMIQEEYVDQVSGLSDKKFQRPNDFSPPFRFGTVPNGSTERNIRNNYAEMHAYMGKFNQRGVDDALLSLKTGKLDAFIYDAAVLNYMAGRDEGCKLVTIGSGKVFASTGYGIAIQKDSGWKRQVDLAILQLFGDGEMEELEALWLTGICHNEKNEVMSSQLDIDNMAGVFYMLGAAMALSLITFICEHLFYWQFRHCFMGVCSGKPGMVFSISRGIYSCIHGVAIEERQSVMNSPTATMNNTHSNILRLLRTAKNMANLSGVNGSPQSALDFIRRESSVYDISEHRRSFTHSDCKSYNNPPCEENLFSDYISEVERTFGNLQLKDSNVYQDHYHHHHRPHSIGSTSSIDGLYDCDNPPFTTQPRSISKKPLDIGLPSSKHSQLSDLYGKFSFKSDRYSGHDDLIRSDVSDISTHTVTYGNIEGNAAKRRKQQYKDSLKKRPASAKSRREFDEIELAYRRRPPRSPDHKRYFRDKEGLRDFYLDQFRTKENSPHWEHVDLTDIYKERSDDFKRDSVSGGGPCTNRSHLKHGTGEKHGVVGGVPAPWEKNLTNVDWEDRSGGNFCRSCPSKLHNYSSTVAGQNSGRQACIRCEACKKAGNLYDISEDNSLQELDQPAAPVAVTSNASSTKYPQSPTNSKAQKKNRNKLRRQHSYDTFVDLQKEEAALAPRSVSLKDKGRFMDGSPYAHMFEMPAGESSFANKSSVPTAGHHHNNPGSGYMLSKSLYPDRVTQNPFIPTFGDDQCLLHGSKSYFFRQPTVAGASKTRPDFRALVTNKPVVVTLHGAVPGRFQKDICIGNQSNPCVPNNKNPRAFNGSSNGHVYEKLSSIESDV
Experimental Protocol: Whole-cell patch clamp recordings in HEK293 cells transfected with GluN1/GluN2B
Format: cell-based
Experimental Conditions: HEK293; Table 2; 50 μM (footnote *); read-out: Normalized Potentiation GluN1/GluN2B
Attribute Measured: activation at 50 µM
Field note: include the unit after the figure.

(Q) Param readout = activation at 50 µM; param system = GluN1/GluN2B NMDARs (Rattus norvegicus, UniProt P35439+Q00960); param query = O=C(N/N=C/c1cccc(O)c1O)c1ccc(Br)cc1 ; response: value
(A) -49.9%

(Q) Likewise for O=C(N/N=C/c1cccc(O)c1O)c1cc(O)cc(O)c1 ?
(A) -45.6%

(Q) Then this molecule: Cc1cc2ccccc2cc1C(=O)N/N=C/c1cccc(O)c1O
(A) -46.9%

(Q) Next: O=C(N/N=C/c1cccc(O)c1O)c1ccc(O)cc1
(A) -56.6%

(Q) Consider next the molecule COc1cccc(/C=N/NC(=O)c2ccccc2)c1O in the same way.
(A) -34%

(Q) Again, but for Cc1cccc(C(=O)N/N=C/c2cccc(O)c2O)c1
(A) -48.6%

---

Experimental Target: GluN1/GluN2A NMDARs (Rattus norvegicus, UniProt P35439+Q00959)
Construct: expressed in transfected cells; host or cells: HEK293
Sequence (Q00959 23-1464, other chains not shown): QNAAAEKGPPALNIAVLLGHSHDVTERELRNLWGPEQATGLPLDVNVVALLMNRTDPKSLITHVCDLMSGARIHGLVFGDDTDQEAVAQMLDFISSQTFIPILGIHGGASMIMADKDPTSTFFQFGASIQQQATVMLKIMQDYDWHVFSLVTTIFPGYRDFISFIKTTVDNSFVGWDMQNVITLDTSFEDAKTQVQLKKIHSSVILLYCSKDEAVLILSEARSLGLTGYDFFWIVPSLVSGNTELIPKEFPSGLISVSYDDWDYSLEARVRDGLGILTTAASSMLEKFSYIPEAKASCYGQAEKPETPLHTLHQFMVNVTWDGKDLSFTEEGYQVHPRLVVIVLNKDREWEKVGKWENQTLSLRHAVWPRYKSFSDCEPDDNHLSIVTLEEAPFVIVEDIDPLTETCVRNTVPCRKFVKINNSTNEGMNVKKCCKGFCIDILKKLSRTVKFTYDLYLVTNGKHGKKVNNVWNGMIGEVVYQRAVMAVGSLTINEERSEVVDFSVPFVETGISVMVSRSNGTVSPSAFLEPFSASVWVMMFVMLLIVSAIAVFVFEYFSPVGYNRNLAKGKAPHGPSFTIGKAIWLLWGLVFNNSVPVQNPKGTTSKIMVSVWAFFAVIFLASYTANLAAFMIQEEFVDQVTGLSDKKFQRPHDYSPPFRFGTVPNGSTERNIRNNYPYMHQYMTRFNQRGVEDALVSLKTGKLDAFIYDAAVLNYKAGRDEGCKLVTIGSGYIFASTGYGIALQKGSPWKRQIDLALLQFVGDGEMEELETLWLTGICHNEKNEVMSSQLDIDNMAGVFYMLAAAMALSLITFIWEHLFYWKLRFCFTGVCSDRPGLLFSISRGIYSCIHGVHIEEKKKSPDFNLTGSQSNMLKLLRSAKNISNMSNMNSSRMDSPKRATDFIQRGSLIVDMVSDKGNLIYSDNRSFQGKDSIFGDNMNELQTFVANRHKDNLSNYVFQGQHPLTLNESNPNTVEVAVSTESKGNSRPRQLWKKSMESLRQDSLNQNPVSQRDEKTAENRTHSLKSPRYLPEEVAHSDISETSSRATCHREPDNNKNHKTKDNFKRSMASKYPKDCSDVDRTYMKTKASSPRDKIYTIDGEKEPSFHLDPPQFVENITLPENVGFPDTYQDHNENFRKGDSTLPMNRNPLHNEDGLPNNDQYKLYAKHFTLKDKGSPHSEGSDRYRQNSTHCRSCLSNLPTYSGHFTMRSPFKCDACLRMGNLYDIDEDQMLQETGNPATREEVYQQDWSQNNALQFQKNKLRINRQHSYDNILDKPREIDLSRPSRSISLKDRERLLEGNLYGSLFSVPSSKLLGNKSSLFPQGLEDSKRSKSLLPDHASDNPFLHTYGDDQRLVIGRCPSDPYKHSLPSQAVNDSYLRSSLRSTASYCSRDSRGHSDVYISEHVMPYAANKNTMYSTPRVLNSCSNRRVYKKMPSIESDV
Experimental Protocol: Whole-cell patch clamp recordings in HEK293 cells transfected with GluN1/GluN2A
Format: cell-based
Experimental Conditions: Table 1; positive modulation of GluN1/GluN2A NMDARs; concentration not given
Attribute Measured: Normalized Potentiation (%)
Only the number, expressed in %, is required.

(Q) # get_value(readout= Normalized Potentiation, system= GluN1/GluN2A NMDARs (Rattus norvegicus, UniProt P35439+Q00959)) for CCOc1cc(Br)cc(/C=N/NC(=O)c2ccc(C)cc2Cl)c1O
(A) 466.57

(Q) Can you handle CCOc1cc(Br)cc(/C=N/NC(=O)c2ccccc2C)c1O next?
(A) 196.21

(Q) How about CCOc1cc(Cl)c(Cl)c(/C=N/NCc2ccccc2)c1O ?
(A) 105.85

(Q) // query: O=C(N/N=C/c1cccc(O)c1O)c1cccc(Br)c1
(A) 36.90

(Q) Follow-up item: COc1cccc(/C=N/NC(=O)c2ccccc2C)c1O [Npam02]
(A) 243.57

(Q) Next record, please: COc1cc(Br)cc(/C=N/NC(=O)c2cccc(Br)c2)c1O
(A) 224.79

(Q) Follow-up entry: CCOc1cc(Cl)c(Cl)c(/C=N/NC(=O)c2ccc(OC)cc2)c1O
(A) 441.05

(Q) Also CCOc1cc(Br)c(Br)c(/C=N/NC(=O)c2ccccc2OC)c1O ?
(A) 118.15

(Q) Same read-out for COc1cc(Br)c(Br)c(/C=N/NC(=O)c2cccc(F)c2)c1O ?
(A) 435.94

(Q) Another compound: CCOc1cc(Cl)c(Cl)c(/C=N/NC(=O)c2cccc(Br)c2C)c1OC
(A) 33.37

---

Experimental Target: GluN1/GluN2A NMDARs (Rattus norvegicus, UniProt P35439+Q00959)
Construct: expressed in transfected cells; host or cells: HEK293
Experimental Protocol: Whole-cell patch clamp recordings in HEK293 cells transfected with GluN1/GluN2A
Assay type: cell-based
Experimental Conditions: HEK293; Table 2; 50 μM (footnote *); read-out: Normalized Potentiation GluN1/GluN2A
Attribute Measured: activation at 50 µM (%)
Please state the figure in %; there is no need to write the unit.

(Q) If you can, please state the reported activation at 50 µM value of O=C(N/N=C/c1cccc(O)c1O)c1ccc(Br)cc1 [Npam73] .
(A) 30.7

(Q) Thanks! And COc1cccc(/C=N/NC(=O)c2ccccc2)c1O [Npam69] ?
(A) 11.1

(Q) Try the compound Cc1cccc(C(=O)N/N=C/c2cccc(O)c2O)c1 [Npam71]
(A) 41.7

(Q) Moving on to O=C(N/N=C/c1cccc(O)c1O)c1ccc(O)cc1 [Npam68]
(A) 35.1

(Q) Also Cc1cc2ccccc2cc1C(=O)N/N=C/c1cccc(O)c1O [Npam65] ?
(A) 51.8

(Q) What about O=C(N/N=C/c1cccc(O)c1O)c1cc(O)cc(O)c1 [Npam70] ?
(A) -24.1

---

For each record, write down the corresponding activation at 100 µM.
Experimental Target: GluN1/GluN2A NMDARs (Rattus norvegicus, UniProt P35439+Q00959)
Construct: expressed in transfected cells; host or cells: HEK293
Experimental Protocol: Whole-cell patch clamp recordings in HEK293 cells transfected with GluN1/GluN2A
Assay type: cell-based
Experimental Conditions: HEK293; Table 2; 100 μM; read-out: Normalized Potentiation GluN1/GluN2A
Please reply with the bare figure in % and do not write the unit itself.

(Q) Requested field: activation at 100 µM. Item: O=C(N/N=C/c1cccc(O)c1O)c1ccccc1
(A) 26.2

(Q) Queued: COc1cccc(/C=N/NC(=O)c2ccccc2I)c1O
(A) 45.7

(Q) And the next one, COc1cc([N+](=O)[O-])cc(/C=N/NC(=O)c2ccccc2C)c1O ?
(A) 118

(Q) What about COc1cc(Cl)cc(/C=N/NC(=O)c2ccccc2Br)c1O ?
(A) 57.2

(Q) Follow-up entry: O=C(N/N=C/c1cccc(O)c1O)c1cccc([N+](=O)[O-])c1
(A) 28.2

(Q) Same again, this time with O=C(N/N=C/c1cccc(O)c1O)c1cccc(I)c1
(A) 52.7

(Q) Next entry: Cc1ccccc1C(=O)N/N=C/c1cccc(O)c1O
(A) 33.7

---

Please respond with reported Normalized Potentiation for every item in the list.
Experimental Target: GluN1/GluN2A NMDARs (Rattus norvegicus, UniProt P35439+Q00959)
Construct: expressed in transfected cells; host or cells: HEK293
Experimental Protocol: Whole-cell patch clamp recordings in HEK293 cells transfected with GluN1/GluN2A
Format: cell-based
Experimental Conditions: Table 1; positive modulation of GluN1/GluN2A NMDARs; concentration not given
The response must be a number in % with no trailing unit.

(Q) Bench note: what Normalized Potentiation did COc1cc(Cl)cc(/C=N/NC(=O)c2ccccc2Br)c1O [Npam20] show?
(A) 131.85

(Q) What about this compound? CCOc1cc(Cl)c(Cl)c(/C=N/NC(=O)Cc2ccccc2)c1O
(A) 21.48

(Q) Item: CCOc1cc(Cl)cc(/C=N/NC(=O)c2ccccc2Br)c1O [Npam18]
(A) 213.58

(Q) Similarly, O=C(N/N=C/c1cc(Cl)cc(Cl)c1O)c1ccccc1Br ?
(A) 175.08

(Q) Try COc1cccc(/C=N/NC(=O)c2ccccc2C)c1O [Npam42] next.
(A) 43.04

(Q) Do the same for CCOc1cc(Cl)cc(/C=N/NC(=O)c2ccccc2Br)c1O [Npam80] please
(A) 213.60

(Q) Subsequent entry: COc1cc(Br)cc(/C=N/NC(=O)c2ccc(NC(=O)c3ccc(C)cc3)cc2)c1O
(A) −14.32

(Q) Next entry: COc1cc(Br)c(Br)c(/C=N/NC(=O)c2ccccc2Br)c1O
(A) 196.54

(Q) Now try CCOc1cc(Br)cc(/C=N/NC(=O)c2cccc(C)c2C)c1O .
(A) 89.84

(Q) Would you kindly repeat that for CCOc1cc(Br)cc(/C=N/NC(=O)c2ccccc2N)c1O ?
(A) 37.27

---

Experimental Target: GluN1/GluN2B NMDARs (Rattus norvegicus, UniProt P35439+Q00960)
Construct: expressed in transfected cells; host or cells: HEK293
Experimental Protocol: Whole-cell patch clamp recordings in HEK293 cells transfected with GluN1/GluN2B
Assay type: cell-based
Experimental Conditions: HEK293; Table 2; 100 μM; read-out: Normalized Potentiation GluN1/GluN2B
Attribute Measured: activation at 100 µM (%)
// note: answer is a bare numeric in %

(Q) So what's the measured activation at 100 µM for this one? COc1cccc(/C=N/NC(=O)c2ccccc2C)c1O
(A) -4.82

(Q) Another compound to check: O=C(N/N=C/c1cccc(O)c1O)c1ccccc1
(A) -28

(Q) Now consider COc1cc(Cl)cc(/C=N/NC(=O)c2ccccc2Br)c1O .
(A) -17

(Q) Try this compound next: Cc1ccccc1C(=O)N/N=C/c1cccc(O)c1O
(A) -54.6

(Q) Queued: O=C(N/N=C/c1cccc(O)c1O)c1cccc(I)c1
(A) -100

(Q) Also check O=C(N/N=C/c1cccc(O)c1O)c1cccc([N+](=O)[O-])c1
(A) -54.6

(Q) Queued: COc1cc([N+](=O)[O-])cc(/C=N/NC(=O)c2ccccc2C)c1O
(A) -24.2

Where do these numbers come from? They come from patent US11166924B2.
